These data points were gathered from patent US6350731.

study_system: 21 DB-1
assay_details: CELIA on monoclonal 21 DB-1; coated antigen not given
Where no end group is shown, it is not given here.
readout_label: IC50 (nM)

P. Ac-ISRRLIDRTNANFLC (not fully specified; printed as Ac-25I-S-R-R-L-I-D-R-T-N-A-N-F-L38-C) [GP4]
Q. Ac-ISRRLIDRTNANFLVWPPC [GP10]
Lookup: Just tell me: smaller IC50 value, P or Q ? Returns: label corresponding to the selected item.
Found: P
(P: 18 nM, Q: 30 nM)
